Reported melting point is given for each of the following molecules.

COc1ccc2[nH]ncc2c1Br :: 178 to 180 °C
CCOC(=O)C(Cc1ccc(OCCc2nc(-c3ccccc3)oc2C)cc1)C(=O)O (stereo unspecified) :: 95.1 to 96 °C
COc1nc(C)nc(NN)c1Cl :: 153 to 154 °C
O=[N+]([O-])c1ccc2c(c1)C(c1ccccc1F)=NCC(OP(=O)(N1CCOCC1)N1CCOCC1)=N2 :: 169 to 172 °C
Cc1cccc(C(=O)c2[nH]c3cc(Cl)ccc3c2NC(=O)CC(C)C)c1 :: 182 to 185 °C

Let us move to another entry and its melting point.
The recorded melting point for entry COc1ccc(S(=O)(=O)N(Cc2ccccc2)C(C)C(=O)NO)cc1 (stereo unspecified) equals 127 to 129 °C
